Data origin: patent US20190062438A1

- study_target: T1, soluble Homo sapiens CD131 comprising a C-terminal 6xHis tag (human, UniProt P32927 17-438)
- T1 construct: truncated after Ser438, C-terminal 6xHis; also called shCD131; shβc
- T1 sequence: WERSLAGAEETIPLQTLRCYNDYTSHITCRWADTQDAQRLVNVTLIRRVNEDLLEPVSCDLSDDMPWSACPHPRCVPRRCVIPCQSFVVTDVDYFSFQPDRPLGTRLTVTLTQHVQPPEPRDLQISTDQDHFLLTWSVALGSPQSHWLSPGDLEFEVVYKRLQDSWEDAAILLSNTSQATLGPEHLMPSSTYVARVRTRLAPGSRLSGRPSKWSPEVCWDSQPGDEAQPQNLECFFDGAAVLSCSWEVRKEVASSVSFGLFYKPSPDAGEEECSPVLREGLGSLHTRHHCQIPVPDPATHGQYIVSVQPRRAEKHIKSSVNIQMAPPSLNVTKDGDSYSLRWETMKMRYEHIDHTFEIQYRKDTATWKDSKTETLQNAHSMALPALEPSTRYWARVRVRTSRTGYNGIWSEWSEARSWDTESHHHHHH
- test_details: SPR, Fab over captured shCD131
measured_attribute: kon (M⁻¹ s⁻¹)
Form entry: value (M⁻¹ s⁻¹) — number only.

See these solved cases before continuing.
9A2-VR39.177 Fab (Fab, V domains shown, recombinant Fab) VH: EVQLLESGGGLVQPGGSLRLSCAASGFTFSHYHMLWVRQAPGKGLEWVSSINGRGRVTYYALEYKKRFTISRDNSKNTLYLQMNSLRAEDTAVYYCARFYDSFFDIWGQGTMVTVSS VL: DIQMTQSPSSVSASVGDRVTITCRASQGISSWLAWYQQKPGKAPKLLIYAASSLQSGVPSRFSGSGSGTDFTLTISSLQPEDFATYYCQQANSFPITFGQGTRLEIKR :: 3.69e+06
9A2-VR24.27 Fab (Fab, V domains shown, recombinant Fab) VH: EVQLLESGGGLVQPGGSLRLSCAASGFTFPWYRVHWVRQAPGKGLEWVSSIRSSGGFPYYHQKVKGRFTISRDNSKNTLYLQMNSLRAEDTAVYYCARFYDSFFDIWGQGTMVTVSS VL: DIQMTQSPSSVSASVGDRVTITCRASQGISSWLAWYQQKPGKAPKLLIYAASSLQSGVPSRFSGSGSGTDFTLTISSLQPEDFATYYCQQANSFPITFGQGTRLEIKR :: 3.1e+06

Consider the additional binder presented here.
Qu. Quick one: give measured kon for 9A2-VR24.30 Fab (Fab, V domains shown, recombinant Fab) VH: EVQLLESGGGLVQPGGSLRLSCAASGFTFPWYRVHWVRQAPGKGLEWVSSIRSSGGFPYYNRRVKGRFTISRDNSKNTLYLQMNSLRAEDTAVYYCARFYDSFFDIWGQGTMVTVSS VL: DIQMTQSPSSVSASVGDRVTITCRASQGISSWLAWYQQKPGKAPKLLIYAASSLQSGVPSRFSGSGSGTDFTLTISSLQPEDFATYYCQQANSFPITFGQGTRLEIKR
Ans. 3.8e+06
